Recorded values, source patent US7445765B2.

Property: Biodistribution in rats: Kidneys; scope: individual molecules
experimental.details: Biodistribution of the 99mTc(N) heterocomplexes in rats (organ uptake, heart accumulation, heart/lung and heart/liver ratios)
Type: in vivo, female Sprague-Dawley rats
run.conditions: 10 min post injection
assay.readout: Biodistribution in rats: Kidneys

>  <molecule>
CCOCCN1CC[P](CCCOC)(CCCOC)[99Tc+]2(#[N])([S]C(N(CCOCC)CCOCC)=[S]2)[P](CCCOC)(CCCOC)CC1 [[^99mTc(N) (PNP5) (DBODC)]^+]

>  <recorded.value>
9.16 % dose/g

$$$$
>  <molecule>
CCOCCN(CCOCC)C1=[S][99Tc+]2(#[N])([S]1)[P](CCCOC)(CCCOC)CCN(CCOC)CC[P]2(CCCOC)CCCOC [[^99mTc(N) (PNP3) (DBODC)]^+]

>  <recorded.value>
6.74 ± 0.63 % ID/g

$$$$
>  <molecule>
CCOCCN1CC[P](CCCOC)(CCCOC)[99Tc+]2(#[N])([S]C(N(CCOCC)C(C)C)=[S]2)[P](CCCOC)(CCCOC)CC1 [[^99mTc(N) (PNP5) (ISOET)]^+]

>  <recorded.value>
5.98 % dose/g

$$$$
>  <molecule>
COCCC[P]1(CCCOC)CCN(CCOC)CC[P](CCCOC)(CCCOC)[99Tc+]12(#[N])[S]C(N(CCOC)CCOC)=[S]2 [[^99mTc(N) (PNP3) (DPODC)]^+]

>  <recorded.value>
6.82 ± 3.62 % ID/g

$$$$
